Reference source for all entries: paper PMC12951562

Molecular target: SH2D6 (Homo sapiens)
Construct: made in house; host or cells: HEK293 (transient transfection), unpurified extract
Sequence (Q7Z4S9 whole entry): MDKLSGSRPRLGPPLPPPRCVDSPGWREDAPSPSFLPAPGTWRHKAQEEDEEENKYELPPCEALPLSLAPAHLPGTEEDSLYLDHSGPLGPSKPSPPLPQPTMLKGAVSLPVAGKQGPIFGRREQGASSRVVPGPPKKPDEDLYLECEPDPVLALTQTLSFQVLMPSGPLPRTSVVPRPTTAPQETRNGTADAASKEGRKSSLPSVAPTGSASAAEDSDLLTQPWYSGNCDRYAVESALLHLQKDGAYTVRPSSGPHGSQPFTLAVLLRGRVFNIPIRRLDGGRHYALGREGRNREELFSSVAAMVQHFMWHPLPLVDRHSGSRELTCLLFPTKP
Assay: biochemical
Format: binding
Details: read-out: percent of DMSO vehicle control
Non-standard residues stand in square brackets, D forms with d. Residues, ends and D or L forms follow the SMILES beside them. *: point of attachment. pY = N[C@@H](Cc1ccc(OP(=O)(O)O)cc1)C(=O)O; Caffeoyl = O=C(/C=C/c1ccc(O)c(O)c1)*
property_name: remaining activity at 10 µM (%)

{"compound": "CC(=O)N[C@@H](Cc1ccc(CP(=O)(O)O)cc1)C(=O)NC1(C(=O)N[C@@H](CC(N)=O)C(=O)NCCCc2c(O)ccc3ccccc23)CCCCC1", "property_name": "remaining activity at 10 µM", "quantity_unit": "%", "recorded_result": 89.5}
{"compound": "NC(=O)CC[C@H](NC(=O)[C@@H]1CC[C@@H]2CCN(C(=O)CCCCCC#Cc3cccc4c3CN(C3CCC(=O)NC3=O)C4=O)C[C@H](NC(=O)c3cc4cc(C(F)(F)P(=O)(O)O)ccc4[nH]3)C(=O)N21)C(=O)NC(c1ccccc1)c1ccccc1 (stereo partly shown)", "property_name": "remaining activity at 10 µM", "quantity_unit": "%", "recorded_result": 99.6}
{"compound": "CC(=O)N1CC[C@H]2CC[C@@H](C(=O)N[C@@H](CCC(N)=O)C(=O)NC(c3ccccc3)c3ccccc3)N2C(=O)[C@@H](NC(=O)c2cc3cc(C(F)(F)P(=O)(O)O)ccc3[nH]2)C1", "property_name": "remaining activity at 10 µM", "quantity_unit": "%", "recorded_result": 96.9}
{"compound": "CC[C@H](C)[C@H](NC(=O)[C@H](CCC(=O)O)NC(=O)[C@H](CCC(=O)O)NC(=O)[C@H](Cc1ccc(OP(=O)(O)O)cc1)NC(=O)/C=C/c1ccc(O)c(O)c1)C(=O)N[C@@H](CCC(=O)O)C(=O)O [Caffeic acid-pYEEIE] (Caffeoyl-[pY]EEIE-OH)", "property_name": "remaining activity at 10 µM", "quantity_unit": "%", "recorded_result": 36.4}

====

Target: SRMS (Homo sapiens, UniProt Q9H3Y6)
Construct: made in house; host or cells: HEK293 (transient transfection), unpurified extract
Sequence (Q9H3Y6 whole entry): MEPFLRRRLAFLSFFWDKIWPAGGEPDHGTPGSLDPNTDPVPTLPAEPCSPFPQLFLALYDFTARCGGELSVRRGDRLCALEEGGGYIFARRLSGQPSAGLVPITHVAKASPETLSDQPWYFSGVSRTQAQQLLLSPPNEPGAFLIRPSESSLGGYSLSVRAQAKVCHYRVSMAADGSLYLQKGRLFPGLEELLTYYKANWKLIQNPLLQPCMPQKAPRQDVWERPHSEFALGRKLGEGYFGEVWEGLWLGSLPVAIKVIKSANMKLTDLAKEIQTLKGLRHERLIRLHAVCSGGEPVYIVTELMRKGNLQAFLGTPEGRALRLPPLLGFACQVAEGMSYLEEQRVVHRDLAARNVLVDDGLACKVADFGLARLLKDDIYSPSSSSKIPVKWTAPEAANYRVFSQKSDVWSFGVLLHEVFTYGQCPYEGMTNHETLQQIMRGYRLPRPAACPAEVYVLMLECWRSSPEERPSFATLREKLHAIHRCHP
Experiment: biochemical
Format: binding
Details: primary screen, 10 μM; read-out: percent of DMSO vehicle control
Each entry below carries its reported remaining activity at 10 µM.

{"smiles_notation": "CC(C)(C)[C@H](NC(=O)/C=C/c1ccc(OP(=O)(O)O)cc1)C(=O)N1CCC[C@H]1C(=O)N(c1ccccc1)c1ccc(I)cc1", "target_system": "SRMS (Homo sapiens, UniProt Q9H3Y6)", "remaining activity at 10 µM (%)": 8.5}
{"smiles_notation": "O=C(CCl)Nc1cccc(CNC(=O)[C@H](Cc2ccc(OP(=O)(O)O)cc2)NC(=O)Cc2ccc(F)cc2)c1", "target_system": "SRMS (Homo sapiens, UniProt Q9H3Y6)", "remaining activity at 10 µM (%)": 1.3}
{"smiles_notation": "C/C(=C\\C(=O)N[C@H](C(=O)N1CCC[C@H]1C(=O)N(c1ccccc1)c1ccc(I)cc1)C(C)(C)C)c1ccc(OP(=O)(O)O)cc1", "target_system": "SRMS (Homo sapiens, UniProt Q9H3Y6)", "remaining activity at 10 µM (%)": 7.6}
{"smiles_notation": "O=C(COc1ccc2cc(C(=O)Nc3ccccc3)ccc2c1)NCc1ccc(OP(=O)(O)O)c(OP(=O)(O)O)c1", "target_system": "SRMS (Homo sapiens, UniProt Q9H3Y6)", "remaining activity at 10 µM (%)": 8.9}
